The measured values listed here are drawn from ChEMBL document CHEMBL3351498.

test: Potentiation of 0.6 uM doxorubicin-induced cytotoxicity in human HL60/MDR cells assessed as viable cells at 25 uM after 48 hrs by WST assay relative to control; assay type: functional
# maps each entry to its Activity
Number first, unit second: that is the form wanted.

| compound | Activity |
| --- | --- |
| COc1cc2c(c(OC)c1OC)-c1c(cc3c(c1OC)OCO3)C[C@@H](C)[C@@H](C)C2 (single isomer, unassigned; atropisomer 2) | 81% |
| COc1cc2c(c(OC)c1OC)-c1c(cc3c(c1OC)OCO3)C[C@H](C)[C@H](C)C2 [WUWEIZISU B] | 39% |
| COc1cc2c(c(OC)c1OC)-c1c(cc3c(c1OC)OCO3)CC(C)C(C)C2 (racemic) | 36% |
| COc1cc2c(c(OC)c1OC)-c1c(cc3c(c1OC)OCO3)C[C@H](C)[C@H](C)C2 (single isomer, unassigned; atropisomer 1) [WUWEIZISU B] | 38% |
| COc1cc2c(c(OC)c1OC)-c1c(cc(OC)c(OC)c1OC)C[C@H](C)[C@H](C)C2 [SCHISANDRIN A] | 43% |

--- query ---
Lab note: COc1cc2c(c(OC)c1OC)-c1c(cc(OC)c(OC)c1OC)C[C@H](C)[C@H](C)C2 (single isomer, unassigned; atropisomer 1) [SCHISANDRIN A] gave Activity of 39%
